Tested on: 817829-284-R-J1-PDC complex spheroid viability
Assay Protocol: Anticancer human tumor 817829-284-R-J1-PDC patient-derived colon adenocarcinoma cell line growth inhibition [POLQ]
Condition Context: curve of first compound; second compound 0.0316 µM
Metric: IC50 (µM)
Report as a plain number; the unit µM is understood.

// worked examples, IC50 included
Molecule	IC50 [µM]
O=C(Nc1ccc(O)c(NS(=O)(=O)c2ccc(F)cc2)c1)c1ccc(-c2ccccc2)cc1 + COC1C(OC(N)=O)C(O)C(Oc2ccc3c(O)c(NC(=O)c4ccc(O)c(CC=C(C)C)c4)c(=O)oc3c2C)OC1(C)C	7.82
O=c1[nH]cc(F)c(=O)[nH]1 + COC1C(OC(N)=O)C(O)C(Oc2ccc3c(O)c(NC(=O)c4ccc(O)c(CC=C(C)C)c4)c(=O)oc3c2C)OC1(C)C	2.4

If you can, please state the reported IC50 value of O=C(c1cc(Cc2n[nH]c(=O)c3ccccc23)ccc1F)N1CCN(C(=O)C2CC2)CC1 + Nc1ccc(C#CCN(C(=O)Cc2ncc(C(F)(F)F)cc2C(F)(F)F)c2ccc(F)cc2)nn1 .
5.08

###

System: 817829-284-R-J1-PDC complex spheroid viability
Assay Protocol: Anticancer human tumor 817829-284-R-J1-PDC cell line growth inhibition [POLQ];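 note: spheroids exposed to compounds for 7 days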;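 for viability, T/C: 100% = DMSO vehicle-treated spheroids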
Condition Context: second compound 0.316 µM; first compound 0.316 µM; stronger effect = lower value
Metric: viability, T/C (%)
Reply with just the number (in %).

Compound	viability, T/C / %
O=C(Nc1ccc(O)c(NS(=O)(=O)c2ccc(F)cc2)c1)c1ccc(-c2ccccc2)cc1 + Nc1ccc(C#CCN(C(=O)Cc2ncc(C(F)(F)F)cc2C(F)(F)F)c2ccc(F)cc2)nn1	105
CC(C)n1c(=O)n(C)c2cnc3cc(F)c(-c4ccc(OCCCN5CCCCC5)nc4)cc3c21 + COC1C(OC(N)=O)C(O)C(Oc2ccc3c(O)c(NC(=O)c4ccc(O)c(CC=C(C)C)c4)c(=O)oc3c2C)OC1(C)C	86.3
CCc1cc2c(N3CCc4c(cc(Cn5ccnc5)cc4-c4cn(C)nc4C(F)(F)F)C3=O)ccnc2c(OC)n1 + Nc1ccc(C#CCN(C(=O)Cc2ncc(C(F)(F)F)cc2C(F)(F)F)c2ccc(F)cc2)nn1	64

What measured viability, T/C is associated with O=c1[nH]cc(F)c(=O)[nH]1 + Nc1ccc(C#CCN(C(=O)Cc2ncc(C(F)(F)F)cc2C(F)(F)F)c2ccc(F)cc2)nn1 on 817829-284-R-J1-PDC complex spheroid viability?
93.3

Give the reported viability, T/C for COc1cc(C2c3cc4c(cc3C(OC3OC5COC(C)OC5C(O)C3O)C3COC(=O)C23)OCO4)cc(OC)c1O (stereo not given) + Cc1cccc(N(C)C(=O)C2C(O)CCN2c2nc(C)cc(C(F)(F)F)c2C#N)c1 (system: 817829-284-R-J1-PDC complex spheroid viability).
15.8

Under 817829-284-R-J1-PDC complex spheroid viability: viability, T/C value of COc1cccc2c1C(=O)c1c(O)c3c(c(O)c1C2=O)CC(O)(C(=O)CO)CC3OC1CC(N)C(O)C(C)O1 (stereo not given) + Cc1cccc(N(C)C(=O)C2C(O)CCN2c2nc(C)cc(C(F)(F)F)c2C#N)c1 ?
6.56

Lookup: viability, T/C / 817829-284-R-J1-PDC complex spheroid viability / O=c1[nH]cc(F)c(=O)[nH]1 + Cc1cccc(N(C)C(=O)C2C(O)CCN2c2nc(C)cc(C(F)(F)F)c2C#N)c1
106

State its viability, T/C on 817829-284-R-J1-PDC complex spheroid viability: CCc1cc2c(N3CCc4c(cc(Cn5ccnc5)cc4-c4cn(C)nc4C(F)(F)F)C3=O)cc(C)nc2c(OC)n1 + COC1C(OC(N)=O)C(O)C(Oc2ccc3c(O)c(NC(=O)c4ccc(O)c(CC=C(C)C)c4)c(=O)oc3c2C)OC1(C)C
68.4

viability, T/C of COc1cc(C2c3cc4c(cc3C(OC3OC5COC(C)OC5C(O)C3O)C3COC(=O)C23)OCO4)cc(OC)c1O (stereo not given) + Nc1ccc(C#CCN(C(=O)Cc2ncc(C(F)(F)F)cc2C(F)(F)F)c2ccc(F)cc2)nn1 on 817829-284-R-J1-PDC complex spheroid viability?
15.3

Report viability, T/C for O=C(c1cc(Cc2n[nH]c(=O)c3ccccc23)ccc1F)N1CCN(C(=O)C2CC2)CC1 + COC1C(OC(N)=O)C(O)C(Oc2ccc3c(O)c(NC(=O)c4ccc(O)c(CC=C(C)C)c4)c(=O)oc3c2C)OC1(C)C tested on 817829-284-R-J1-PDC complex spheroid viability.
85.7

###

System: 817829-284-R-J1-PDC complex spheroid viability
Assay Protocol: Anticancer human tumor 817829-284-R-J1-PDC cell line growth inhibition [POLQ];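 note: spheroids exposed to compounds for 7 days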;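 for viability, T/C: 100% = DMSO vehicle-treated spheroids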
Condition Context: second compound 10 µM; first compound 0.316 µM; stronger effect = lower value
Metric: viability, T/C (%)
A number alone suffices; assume %.

Past entries and their recorded results:
Compound	viability, T/C / %
CCc1c2c(nc3ccc(O)cc13)-c1cc3c(c(=O)n1C2)COC(=O)[C@]3(O)CC + Nc1ccc(C#CCN(C(=O)Cc2ncc(C(F)(F)F)cc2C(F)(F)F)c2ccc(F)cc2)nn1	3.78
Nc1ccn(C2OC(CO)C(O)C2(F)F)c(=O)n1 (stereo not drawn) + Nc1ccc(C#CCN(C(=O)Cc2ncc(C(F)(F)F)cc2C(F)(F)F)c2ccc(F)cc2)nn1	3.9

// moving on: another record for viability, T/C
Checklist item: viability, T/C tested on 817829-284-R-J1-PDC complex spheroid viability, entry CNCc1ccc(-c2[nH]c3cc(F)cc4c3c2CCNC4=O)cc1 + Cc1cccc(N(C)C(=O)C2C(O)CCN2c2nc(C)cc(C(F)(F)F)c2C#N)c1 , value?
67.1

###

The entries below are paired with their reported viability, T/C.
Test system: 817829-284-R-J1-PDC complex spheroid viability
Assay Protocol: Anticancer human tumor 817829-284-R-J1-PDC cell line growth inhibition [POLQ];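 note: spheroids exposed to compounds for 7 days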;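 for viability, T/C: 100% = DMSO vehicle-treated spheroids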
Condition Context: second compound 0.0316 µM; first compound 3.16 µM; stronger effect = lower value

Example entries begin here.
Molecule	Metric	Measurement
CCc1cc2c(N3CCc4c(cc(Cn5ccnc5)cc4-c4cn(C)nc4C(F)(F)F)C3=O)cc(C)nc2c(OC)n1 + Cc1cccc(N(C)C(=O)C2C(O)CCN2c2nc(C)cc(C(F)(F)F)c2C#N)c1	viability, T/C	41.8%
Nc1ccn(C2OC(CO)C(O)C2(F)F)c(=O)n1 (stereo unspecified) + Nc1ccc(C#CCN(C(=O)Cc2ncc(C(F)(F)F)cc2C(F)(F)F)c2ccc(F)cc2)nn1	viability, T/C	2.78%
Nc1ccn(C2OC(CO)C(O)C2(F)F)c(=O)n1 (stereo unspecified) + Cc1cccc(N(C)C(=O)C2C(O)CCN2c2nc(C)cc(C(F)(F)F)c2C#N)c1	viability, T/C	4.13%
O=c1[nH]cc(F)c(=O)[nH]1 + Nc1ccc(C#CCN(C(=O)Cc2ncc(C(F)(F)F)cc2C(F)(F)F)c2ccc(F)cc2)nn1	viability, T/C	34%
CC1COCCN1c1cc(-c2ccnn2C)c2ccnc(-c3ccn[nH]3)c2n1 (stereo unspecified) + Cc1cccc(N(C)C(=O)C2C(O)CCN2c2nc(C)cc(C(F)(F)F)c2C#N)c1	viability, T/C	3.09%

Next, consider the following molecule.
Reported viability, T/C for C#Cc1c(F)ccc2cc(O)cc(-c3ncc4c(N5CC6CCC(C5)N6)nc(OCC56CCCN5CC(F)C6)nc4c3F)c12 (stereo unspecified) + COC1C(OC(N)=O)C(O)C(Oc2ccc3c(O)c(NC(=O)c4ccc(O)c(CC=C(C)C)c4)c(=O)oc3c2C)OC1(C)C : what is it?
102%

###

Test system: 817829-284-R-J1-PDC complex spheroid viability
Assay Protocol: Anticancer human tumor 817829-284-R-J1-PDC cell line growth inhibition [POLQ]; active means viability on the fitted dose curve at most 10% of control; inactive means the rest;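 note: spheroids exposed to compounds for 7 days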
Condition Context: second compound 10 µM; first compound 1 µM
Answer with one of the outcomes given here: 1 (yes) (active), 0 (no) (inactive)

Which outcome did this test record for the compound C=CC(=O)N1CCN(c2nc(=O)n(-c3c(C)ccnc3C(C)C)c3nc(-c4c(O)cccc4F)c(F)cc23)C(C)C1 (stereo unspecified) + Cc1cccc(N(C)C(=O)C2C(O)CCN2c2nc(C)cc(C(F)(F)F)c2C#N)c1 ?
0 (no)

Short answer needed: outcome of this test for CC1COCCN1c1cc(C2(S(C)(=N)=O)CC2)nc(-c2ccnc3[nH]ccc23)n1 (stereo unspecified) + Nc1ccc(C#CCN(C(=O)Cc2ncc(C(F)(F)F)cc2C(F)(F)F)c2ccc(F)cc2)nn1 ?
0 (no)

Tell me the recorded outcome of this test for COc1cccc(OCCCN)c1-c1cc(Nc2cnc(C#N)cn2)n[nH]1 + COC1C(OC(N)=O)C(O)C(Oc2ccc3c(O)c(NC(=O)c4ccc(O)c(CC=C(C)C)c4)c(=O)oc3c2C)OC1(C)C .
1 (yes)

Dear all, I need the recorded test outcome for C=CCn1c(=O)c2cnc(Nc3ccc(N4CCN(C)CC4)cc3)nc2n1-c1cccc(C(C)(C)O)n1 + Nc1ccc(C#CCN(C(=O)Cc2ncc(C(F)(F)F)cc2C(F)(F)F)c2ccc(F)cc2)nn1 , thank you.
1 (yes)

Entry O=c1[nH]cc(F)c(=O)[nH]1 + COC1C(OC(N)=O)C(O)C(Oc2ccc3c(O)c(NC(=O)c4ccc(O)c(CC=C(C)C)c4)c(=O)oc3c2C)OC1(C)C : call = ?
0 (no)

Recorded test outcome, item CC(C)n1c(=O)n(C)c2cnc3cc(F)c(-c4ccc(OCCCN5CCCCC5)nc4)cc3c21 + Cc1cccc(N(C)C(=O)C2C(O)CCN2c2nc(C)cc(C(F)(F)F)c2C#N)c1
0 (no)

Entry COc1cc2cc(C(=O)CCC(=O)O)sc2cc1OC + Cc1cccc(N(C)C(=O)C2C(O)CCN2c2nc(C)cc(C(F)(F)F)c2C#N)c1 : call = ?
0 (no)

Assay result, entry CC1COCCN1c1cc(C2(O)CC3CCC(C2)O3)c2cnn(-c3ccn[nH]3)c2n1 (stereo unspecified) + Cc1cccc(N(C)C(=O)C2C(O)CCN2c2nc(C)cc(C(F)(F)F)c2C#N)c1 — outcome?
1 (yes)

Could you check what this test reported for O=C(Nc1ccc(O)c(NS(=O)(=O)c2ccc(F)cc2)c1)c1ccc(-c2ccccc2)cc1 + Nc1ccc(C#CCN(C(=O)Cc2ncc(C(F)(F)F)cc2C(F)(F)F)c2ccc(F)cc2)nn1 ?
0 (no)

Which outcome was entered for the compound CCc1c2c(nc3ccc(O)cc13)-c1cc3c(c(=O)n1C2)COC(=O)[C@]3(O)CC + Nc1ccc(C#CCN(C(=O)Cc2ncc(C(F)(F)F)cc2C(F)(F)F)c2ccc(F)cc2)nn1 in this test?
1 (yes)

Tell me the assay call for O=C(c1cc(Cc2n[nH]c(=O)c3ccccc23)ccc1F)N1CCN(C(=O)C2CC2)CC1 + COC1C(OC(N)=O)C(O)C(Oc2ccc3c(O)c(NC(=O)c4ccc(O)c(CC=C(C)C)c4)c(=O)oc3c2C)OC1(C)C please.
0 (no)

Which outcome was assigned to C#Cc1c(F)ccc2cc(O)cc(-c3ncc4c(N5CC6CCC(C5)N6)nc(OCC56CCCN5CC(F)C6)nc4c3F)c12 (stereo unspecified) + Cc1cccc(N(C)C(=O)C2C(O)CCN2c2nc(C)cc(C(F)(F)F)c2C#N)c1 in this test?
0 (no)

Values were extracted from PubChem BioAssay AID1963839.
